- measurement.target: Adenosine receptor A2a (Homo sapiens, UniProt P29274)
- Sequence (P29274 whole entry): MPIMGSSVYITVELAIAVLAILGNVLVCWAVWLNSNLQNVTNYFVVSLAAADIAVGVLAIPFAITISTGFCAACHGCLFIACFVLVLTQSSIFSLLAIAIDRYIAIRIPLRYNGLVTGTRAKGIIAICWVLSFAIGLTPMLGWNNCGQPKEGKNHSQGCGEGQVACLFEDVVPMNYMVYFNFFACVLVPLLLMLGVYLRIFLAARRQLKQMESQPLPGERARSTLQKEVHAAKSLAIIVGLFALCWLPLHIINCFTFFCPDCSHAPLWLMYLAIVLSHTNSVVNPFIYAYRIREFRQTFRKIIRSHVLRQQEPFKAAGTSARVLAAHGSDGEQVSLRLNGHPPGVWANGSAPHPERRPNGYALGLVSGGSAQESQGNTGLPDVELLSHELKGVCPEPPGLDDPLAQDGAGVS
- assay.details: Displacement of [3H]-ZM-241385 from human adenosine receptor A2a expressed in HEK293 cell membranes at 0.1 uM after 90 mins by liquid scintillation counting method relative to control
Hi there, I'd appreciate the recorded inhibition for every entry that follows.
Answers without a unit are incomplete; give the number and then its unit.

# batch: return inhibition for each of the 4 compounds below
1. CCCn1c(=O)c2[nH]c(-c3cnn(CC4CC(=O)N(c5ccc(C)cc5)C4)c3)nc2n(CCC)c1=O (centres undefined)
2. CCCn1c(=O)c2[nH]c(-c3cnn(CC4CC(=O)N(c5ccc(F)cc5)C4)c3)nc2n(CCC)c1=O (centres undefined)
3. CCCn1c(=O)c2[nH]c(-c3cnn(CC4CC(=O)N(c5ccc(C#N)cc5)C4)c3)nc2n(CCC)c1=O (centres undefined)
4. CCCn1c(=O)c2[nH]c(-c3cnn(CC4CC(=O)N(c5ccc(OC(F)(F)F)cc5)C4)c3)nc2n(CCC)c1=O (centres undefined)

Out:
1: 37%; 2: 42%; 3: 20%; 4: 24%

----------
- measurement.target: Adenosine receptor A2a (Homo sapiens, UniProt P29274)
# note: exactly 200 nM is not below, so it is no; use yes for Ki strictly under it

Solved cases below.
molecule	label
CCCn1c(=O)c2[nH]c(-c3cnn(CC4CC(=O)N(c5ccc(F)cc5)C4)c3)nc2n(CC)c1=O (stereo not given)	yes
CCCn1c(=O)c2[nH]c(-c3cnn(CC4CC(=O)N(c5ccc(C(F)(F)F)cc5)C4)c3)nc2n(CCC)c1=O (stereo not given)	yes
CCCn1c(=O)c2[nH]c(-c3cc(OCC4CC(=O)N(c5ccc(C(F)(F)F)cc5)C4)no3)nc2n(CCC)c1=O (stereo not given)	no
CCCn1c(=O)c2[nH]c(-c3cnn(CC4CC(=O)N(c5ccc(C(F)(F)F)cc5)C4)c3)nc2n(CC)c1=O (stereo not given)	no

Kindly consider the entry below.
In: Strictly below 200 nM: is that where Ki of CCCn1c(=O)c2[nH]c(-c3ccc(OCC4CC(=O)N(c5ccc(C(F)(F)F)cc5)C4)nc3)nc2n(CCC)c1=O (stereo not given) sits?
Out: yes

----------
- measurement.target: Adenosine receptor A2b (Homo sapiens, UniProt P29275)
- Sequence (P29275 whole entry): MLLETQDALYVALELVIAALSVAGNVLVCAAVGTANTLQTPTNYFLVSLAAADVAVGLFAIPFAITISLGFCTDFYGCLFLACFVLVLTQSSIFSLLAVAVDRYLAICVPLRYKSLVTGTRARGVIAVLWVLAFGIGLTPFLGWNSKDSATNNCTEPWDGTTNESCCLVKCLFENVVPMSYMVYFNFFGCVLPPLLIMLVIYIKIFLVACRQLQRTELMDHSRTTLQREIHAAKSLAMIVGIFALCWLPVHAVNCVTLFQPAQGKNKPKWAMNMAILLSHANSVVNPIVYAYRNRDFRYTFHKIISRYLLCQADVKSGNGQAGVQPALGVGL
- assay.details: Displacement of [3H]-MRS-1754 from human adenosine receptor A2b expressed in HEK293 cell membranes after 90 mins by liquid scintillation counting method
Kindly supply the reported pKi values for the records listed here.
Give bare numbers, as −log10 of the molar value.

The examples below pair each entry with its known result.
compound	pKi
CCCn1c(=O)c2[nH]c(-c3cnn(CC4CCN(c5cccc(C(F)(F)F)c5)C4=O)c3)nc2n(CCC)c1=O (stereo not drawn)	8.22
CCCn1c(=O)c2[nH]c(-c3ccc(OCC4CC(=O)N(c5ccc(C(F)(F)F)cc5)C4)cc3)nc2n(CCC)c1=O (stereo not drawn)	9.00

Please examine the following record next.
In: Answer with reported pKi of CCCn1c(=O)c2[nH]c(-c3cnn(CC4CC(=O)N(c5ccc(F)cc5)C4)c3)nc2n(CCC)c1=O (stereo not drawn)
Out: 8.01

The origin of these recorded values is ChEMBL document CHEMBL3994582.
